The measured values listed here are drawn from patent US6906098B2.

- System: VERO cells
- RECORDED CONDITIONS: ratio of IC50 in VERO cells to MIC (M. tuberculosis H37Rv)
PARAMETER MEASURED: SI (selectivity index)
// no unit string in output, number only

{"COMPOUND": "CCC1CCC2(CC1)OOC1(CC[C@]3(C)C4C[C@H](OC(C)=O)[C@@]5(C)C(CC[C@@H]5C(C)CCC(N)=O)C4[C@H](OC(C)=O)C[C@@H]3C1)OO2 (single isomer, unassigned)", "PARAMETER MEASURED": "SI (selectivity index)", "MEAS VALUE": 1.48}
{"COMPOUND": "CCNC(=O)CCC(C)[C@H]1CCC2C3C(C[C@H](OC(C)=O)[C@@]21C)[C@@]1(C)CCC2(C[C@H]1C[C@H]3OC(C)=O)OOC1(CCC(C)CC1)OO2 (stereo partly drawn)", "PARAMETER MEASURED": "SI (selectivity index)", "MEAS VALUE": 1.7}

# ---- query compound ----
Per the record, CNC(=O)CCC(C)[C@H]1CCC2C3C(C[C@H](OC(C)=O)[C@@]21C)[C@@]1(C)CCC2(C[C@H]1C[C@H]3OC(C)=O)OOC1(CCC(C)CC1)OO2 (stereo partly drawn) [18/1C27] has SI (selectivity index) of 0.91
